// provenance: patent US10919852B2

This listing pairs compounds with measured IC50.
target: human PD-L1 / Human PD-1 (Homo sapiens (Human), UniProt Q9NZQ7); assay: Enzyme-Linked Immunosorbent Assay (ELISA), PD-1/PD-L1 binding; conditions: plate-coated human PD-L1, biotinylated human PD-1
Sequence (Q9NZQ7 19-239): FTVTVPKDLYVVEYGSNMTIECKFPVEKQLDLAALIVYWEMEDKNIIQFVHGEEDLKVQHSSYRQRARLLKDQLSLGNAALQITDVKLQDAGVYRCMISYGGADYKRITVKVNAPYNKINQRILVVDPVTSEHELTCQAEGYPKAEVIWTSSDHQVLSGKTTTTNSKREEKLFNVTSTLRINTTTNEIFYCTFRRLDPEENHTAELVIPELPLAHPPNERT

{"compound": "N#Cc1cncc(COc2cc(O[C@H]3CCc4c(-c5cccc(OCCCN6CCNC(=O)C6)c5Cl)cccc43)c(Cl)cc2CNC2(C(=O)O)CCC2)c1", "data value": "< 5 nM"}

Fill in the blank: the reported IC50 of Cc1c(OCCCN2CCC(F)CC2)cccc1-c1cccc2c1CC[C@@H]2Oc1cc(OCc2cc(C#N)cc(C#N)c2)c(CNC[C@@H]2CCC(=O)N2)cc1Cl is ____.
< 5 nM

Fill in the blank: the reported IC50 of N#Cc1cncc(COc2cc(O[C@H]3CCc4c(-c5cccc(OCCCN6CC7(CC(F)C7)C6)c5Cl)cccc43)c(Cl)cc2CN[C@H]2CCC[C@@H]2O)c1 is ____.
< 5 nM

* * *

This listing pairs compounds with measured IC50.
target: human PD-L1 / Human PD-1 (Homo sapiens (Human), UniProt Q9NZQ7); test: Enzyme-Linked Immunosorbent Assay (ELISA), PD-1/PD-L1 binding; conditions: plate-coated human PD-L1, biotinylated human PD-1

Here is how some compounds turned out for IC50.
{"compound": "CCOc1cc(O[C@H]2CCc3c(-c4cccc(OCCCN5CCC5(C)C)c4C)cccc32)c(Cl)cc1CN(C)CCc1nnn[nH]1", "IC50": "5 to 500 nM"}
{"compound": "CC1(F)CCN(CCCOc2cccc(-c3cccc4c3CC[C@@H]4Oc3cc(OCc4cncc(C#N)c4)c(CNC[C@@H]4CCC(=O)N4)cc3Cl)c2Cl)CC1", "IC50": "< 5 nM"}
{"compound": "Cc1c(OCCCN2CCCCC2(C)C)cccc1-c1cccc2c1CC[C@@H]2Oc1cc(OCc2cc(C#N)cc(C#N)c2)c(CNC[C@H]2CCC(=O)N2)cc1Cl", "IC50": "5 to 500 nM"}

Form entry - test system: human PD-L1 / Human PD-1 (Homo sapiens (Human), UniProt Q9NZQ7); read-out: IC50; compound: C[C@@](CO)(NCc1cc(Cl)c(O[C@H]2CCc3c(-c4cccc(OCCCN5CC(O)C5)c4Cl)cccc32)cc1-c1cncc(C#N)c1)C(=O)O
< 5 nM

Form entry - test system: human PD-L1 / Human PD-1 (Homo sapiens (Human), UniProt Q9NZQ7); read-out: IC50; compound: N#Cc1cncc(COc2cc(O[C@H]3CCc4c(-c5cccc(OCCCN6CC7(CC(O)C7)C6)c5Cl)cccc43)c(Cl)cc2CN2CCC3(C2)NC(=O)NC3=O)c1 (stereo partly shown)
5 to 500 nM

Form entry - test system: human PD-L1 / Human PD-1 (Homo sapiens (Human), UniProt Q9NZQ7); read-out: IC50; compound: CCOc1cc(O[C@H]2CCc3c(-c4cccc(OCCCN5CCC5(C)C)c4C)cccc32)c(Cl)cc1CN[C@H]1CCC(=O)NC1
5 to 500 nM

Form entry - test system: human PD-L1 / Human PD-1 (Homo sapiens (Human), UniProt Q9NZQ7); read-out: IC50; compound: Cc1c(OCCCN[C@@H]2CCCC[C@@H]2O)cccc1-c1cccc2c1CC[C@@H]2Oc1cc(OCc2cncc(C#N)c2)c(CN[C@H](C(=O)O)[C@@H](C)O)cc1Cl
< 5 nM

Form entry - test system: human PD-L1 / Human PD-1 (Homo sapiens (Human), UniProt Q9NZQ7); read-out: IC50; compound: Cc1c(OCCCN2CCC(O)CC2)cccc1-c1cccc2c1CC[C@@H]2Oc1cc(OCc2cncc(C#N)c2)c(CN[C@@H]2CCCC[C@@H]2O)cc1Cl
< 5 nM

Form entry - test system: human PD-L1 / Human PD-1 (Homo sapiens (Human), UniProt Q9NZQ7); read-out: IC50; compound: CCOc1cc(O[C@H]2CCc3c(-c4cccc(OCCCN5CCCC5(C)C)c4C)cccc32)c(Cl)cc1CNC[C@@H]1CCC(=O)N1 [drawing 377]
5 to 500 nM

Form entry - test system: human PD-L1 / Human PD-1 (Homo sapiens (Human), UniProt Q9NZQ7); read-out: IC50; compound: CCOc1cc(O[C@H]2CCc3c(-c4cccc(OCCCN5CCC5(C)C)c4C)cccc32)c(Cl)cc1CN1CCNC(=O)CC1
5 to 500 nM
